Exercise: state measured abundance fitness for each of the variants provided.
B1: Intersectin-1, residues 1156 to 1213; numbered along this chain, Q15811 (parent)
chain: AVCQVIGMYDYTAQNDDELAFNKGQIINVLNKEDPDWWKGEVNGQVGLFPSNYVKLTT

# Variants of: B1
# TEST_METHOD_NOTES: abundance fitness (aPCA) (normalised: wild type 0, dead -1); higher = more abundant; growth selection in yeast, the domain comes from the species named
# DETAILS: Homo sapiens
Answers are plain numbers.

> print(dat)
   changes            measure  obs.value
1     V46E  abundance fitness     -0.412
2     V42K  abundance fitness     -0.405
3     F21C  abundance fitness      -1.01
4      G7H  abundance fitness     -0.466
5     I27V  abundance fitness     -0.297
6     E18N  abundance fitness     -0.954

Provide abundance fitness values for the following items, in order.
1. N43G
2. V2Y
3. Q4A
4. L30E

Reply:
-0.241
-0.264
-0.826
-0.978

Provide abundance fitness values for the following items, in order.
1. D34C
2. D36R
3. E33G
4. S51L
5. N28V
6. N31K
7. A20K

Reply:
1. -0.553
2. -0.009
3. -0.241
4. -0.867
5. -0.423
6. -0.319
7. -0.236

Provide abundance fitness values for the following items, in order.
1. G40T
2. I6M
3. D36F
4. G47W
5. N31R
6. T12I
7. E41P

Reply:
1: -0.56; 2: -0.092; 3: -0.175; 4: -0.802; 5: -0.373; 6: -0.608; 7: -1
